These entries and their values trace back to ChEMBL document CHEMBL3232844.

system: BT-549; assay: Cytotoxicity against human BT549 cells; assay type: functional
Rule: measured GI50 below 500 nM gets rule met; anything equal to or greater than 500 nM gets rule not met.

>>> print(df.to_string())
                                        mol  target_entity         class
0  COc1cc(/C=C/c2cc(O)c3c(CC=C(C)C)c[nH]c3c2)cc2c1O[C@]1(C)CC[C@@H](O)C(C)(C)[C@H]1C2         BT-549      rule met
1  COc1cc(/C=C/c2cc(O)c3ccn(C)c3c2)cc2c1O[C@]1(C)CC[C@@H](O)C(C)(C)[C@H]1C2         BT-549  rule not met
2  COc1cc(/C=C/c2cc(OC)c3c(C/C=C(\C)CCC=C(C)C)c[nH]c3c2)cc2c1O[C@]1(C)CC[C@@H](O)C(C)(C)[C@H]1C2         BT-549  rule not met

Task: Given "COc1cc(/C=C/c2cc(O)c3c(C/C=C(\C)CCC=C(C)C)c[nH]c3c2)cc2c1O[C@]1(C)CC[C@@H](O)C(C)(C)[C@H]1C2" , is recorded GI50 strictly lower than 500 nM?
Output: rule not met

Task: Given "COc1cc(/C=C/c2cc(O)c3cc[nH]c3c2)cc2c1O[C@]1(C)CC[C@@H](O)C(C)(C)[C@H]1C2" , is recorded GI50 strictly lower than 500 nM?
Output: rule met

Task: Given "CC1(C)[C@H](O)CC[C@@]2(C)Oc3c(O)cc(/C=C/c4cc(O)c5cc[nH]c5c4)cc3C[C@H]12" , is recorded GI50 strictly lower than 500 nM?
Output: rule met

Task: Given "COc1cc(/C=C/c2cc(OC)c3ccn(C)c3c2)cc2c1O[C@]1(C)CC[C@@H](O)C(C)(C)[C@H]1C2" , is recorded GI50 strictly lower than 500 nM?
Output: rule not met
